System: Haemonchus contortus
Procedure summary: Haemonchus contortus test (HAEMCO), larval kill
Type: in vivo
Measurement parameters: application rate 20 ppm; after 5 days; about 40 larvae
I'd appreciate it if you could supply effect (kill in %) values for the items below.
The response must be a number in % with no trailing unit.

So what's the measured effect (kill in %) for this one? O=C(NC1(COc2ncc(C(F)(F)F)cc2Cl)CC1)c1ccccc1[N+](=O)[O-] [1-195] 80

Item under review: O=C(NCCOc1ncc(Cl)cc1Cl)c1ccccc1F [1-15] . Reported effect (kill in %)? 80

Entry O=C(NC1(COc2ncc(C(F)(F)F)cc2Cl)CC1)c1ccccc1C(F)(F)F [1-169] : reported effect (kill in %) = ? 80

Which effect (kill in %) is reported for this compound? O=C(NC1(COc2ccc(C(F)(F)F)cn2)CC1)c1ccccc1[N+](=O)[O-] [1-196] 90

Given the entry O=C(NCCOc1ncc(Cl)cc1Cl)c1ccccc1I [1-18] , report its measured effect (kill in %). 100

What value of effect (kill in %) has been recorded for this entry: O=C(NCCOc1ncc(Cl)cc1Cl)c1ccccc1C(F)(F)F [1-20] 100

Please report the recorded effect (kill in %) for O=C(NCCOc1ncc(C(F)(F)F)cc1Cl)c1ccccc1C(F)(F)F [1-1] . 100

Given CC(C)(COc1ccc(C(F)(F)F)cn1)NC(=O)c1ccccc1C(F)(F)F [1-78] , state its recorded effect (kill in %). 80

For O=C(NCCOc1ncc(Cl)cc1Cl)c1sccc1I [1-22] , what is its reported effect (kill in %)? 100

Consider the compound O=C(NCCOc1ncc(C(F)(F)F)cc1Cl)c1ccccc1[N+](=O)[O-] [1-53] and give its measured effect (kill in %). 100

---

Tested on: Haemonchus contortus
Procedure summary: Haemonchus contortus test (HAEMCO), larval kill
Type: in vivo
Measurement parameters: application rate 20 ppm; after 5 days; about 40 larvae
Endpoint name: effect (kill in %)
Express the result in % but write the number alone.

Quick one: effect (kill in %) of O=C(NCCOc1ccc(C(F)(F)F)cn1)c1ccccc1Cl ? 80

Fill in the blank: the reported effect (kill in %) of O=C(NCCOc1ncc(C(F)(F)F)cc1Cl)c1cccnc1C(F)(F)F is ____. 90

Would you mind telling me what effect (kill in %) value was observed for O=C(NCCOc1ccc(C(F)(F)F)cn1)c1cccnc1C(F)(F)F ? 80

Fill in: effect (kill in %) of O=C(NC1(COc2ccc(C(F)(F)F)cn2)CC1)c1ccccc1Br is ___ 90

Entry O=C(NC1(COc2ncc(C(F)(F)F)cc2Cl)CC1)c1c(F)cccc1F : reported effect (kill in %) = ? 80

Give its effect (kill in %) value. Item: O=C(NCCOc1ccc(C(F)(F)F)cn1)c1ccccc1I 100

Item under review: O=C(NCCOc1ncc(C(F)(F)F)cc1Cl)c1ccccc1C(F)F . Reported effect (kill in %)? 100

So what does the record say about effect (kill in %) for O=C(NCCOc1ncc(Cl)cc1Cl)c1sccc1Cl ? 80

Quick check: effect (kill in %) of O=C(NCCOc1ccc(Cl)cn1)c1ccccc1C(F)(F)F ? 80

Please report the recorded effect (kill in %) for CC(CNC(=O)c1ccccc1C(F)(F)F)Oc1ncc(C(F)(F)F)cc1Cl (stereo not shown) . 100

---

System: Haemonchus contortus
Procedure summary: Haemonchus contortus test (HAEMCO), larval kill
Format: in vivo
Measurement parameters: application rate 20 ppm; after 5 days; about 40 larvae
Endpoint name: effect (kill in %)
Use % as the unit, but write only the number.

Quick check: effect (kill in %) of O=C(NCCOc1ccc(Cl)cn1)c1ccccc1I ? 90

Query: effect (kill in %); subject: N#Cc1cnc(OCCNC(=O)c2ccccc2C(F)(F)F)c(F)c1 90

Which value of effect (kill in %) has been reported for O=C(NCCOc1ncc(C(F)(F)F)cc1Cl)c1ccccc1Cl in the records? 100

Name the reported effect (kill in %) value associated with the compound O=C(NCCOc1ncc(C(F)(F)F)cc1Cl)c1ccccc1Br 100

I'd like to know its effect (kill in %). The compound in question is CC(COc1ncc(C(F)(F)F)cc1Cl)NC(=O)c1ccccc1C(F)(F)F (stereo not shown) 90

Field request: effect (kill in %) | item: O=C(NC1(COc2ncc(C(F)(F)F)cc2Cl)CC1)c1ccccc1I 100

// lookup effect (kill in %) for O=C(NCCOc1ccc(Cl)cn1)c1ccccc1Br 80

Requested field: effect (kill in %). Item: O=C(NCCOc1ccc(C(F)(F)F)cn1)c1ccccc1C(F)(F)F 100

Query (compound): O=C(NCCOc1ncc(Cl)cc1Cl)c1ccccc1Cl ; field requested: effect (kill in %) 100

Item O=C(NC1(COc2ccc(C(F)(F)F)cn2)CC1)c1c(F)cccc1F has what recorded effect (kill in %)? 90
